Reference source for all entries: the Human Domainome abundance scans (Beltran et al. 2025)

B1: Receptor-interacting serine/threonine-protein kinase 2, residues 438 to 518; numbered along this chain, O43353 (parent)
chain: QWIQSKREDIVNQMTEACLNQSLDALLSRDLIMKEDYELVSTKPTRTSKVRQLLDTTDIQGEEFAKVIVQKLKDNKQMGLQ

Variants of: B1
Test: abundance fitness (aPCA) (normalised: wild type 0, dead -1); higher = more abundant; growth selection in yeast, the domain comes from the species named
Settings: Homo sapiens
value_kind: abundance fitness
Output spec: single numeric token, no unit.

Example entries begin here.
variant_annotation: E63I
value_kind: abundance fitness
endpoint_value: -0.538
//
variant_annotation: R29Q
value_kind: abundance fitness
endpoint_value: -0.059
//
variant_annotation: K49R
value_kind: abundance fitness
endpoint_value: -0.283
//
variant_annotation: K73E
value_kind: abundance fitness
endpoint_value: 0.072
//
variant_annotation: S28C
value_kind: abundance fitness
endpoint_value: -0.283
//
variant_annotation: I32T
value_kind: abundance fitness
endpoint_value: -0.594
//
variant_annotation: E35A
value_kind: abundance fitness
endpoint_value: -0.223
//
variant_annotation: R51E
value_kind: abundance fitness
endpoint_value: -0.273

Query block: Please indicate abundance fitness recorded for "E35G"
Result block: -0.256

Query block: Please indicate abundance fitness recorded for "L53F"
Result block: -0.785

Query block: Please indicate abundance fitness recorded for "E35Y"
Result block: -0.514

Query block: Please indicate abundance fitness recorded for "L54C"
Result block: -0.45

Query block: Please indicate abundance fitness recorded for "T42F"
Result block: -0.243

Query block: Please indicate abundance fitness recorded for "L54R"
Result block: -0.475

Query block: Please indicate abundance fitness recorded for "M33L"
Result block: 0.059

Query block: Please indicate abundance fitness recorded for "S48I"
Result block: -0.923
